Values were extracted from PubChem BioAssay.

# target.desc: Lethal factor (Bacillus anthracis) (UniProt P15917)
# procedure.text: Lethal factor protease inhibitors, Bacillus anthracis, multiplex microsphere cleavage assay, validation set (AID 588461)
# applied.conditions: flow cytometry, at 10 µM, stronger effect = higher value
outcome.measure: inhibition (%)

compound=Cc1ncc(CN2CCC(CO)(CCc3ccccc3)CC2)s1 outcome_measure=inhibition scale_unit=% reported_measurement=-3
compound=O=C(O)c1ccccc1C(=O)OCCCCOC(=O)c1ccccc1C(=O)O outcome_measure=inhibition scale_unit=% reported_measurement=3.5
compound=CSc1ccc(/C=N/N2CCN(Cc3ccc(C)cc3C)CC2)cc1 outcome_measure=inhibition scale_unit=% reported_measurement=-0.3
compound=CC(C)c1ccc2[nH]c3c(c2c1)CCCC3=O outcome_measure=inhibition scale_unit=% reported_measurement=-3.4
compound="CCN(CCCCOC(=O)c1ccc(OC)c(OC)c1)C(C)Cc1ccc(OC)cc1 (stereo not given)" outcome_measure=inhibition scale_unit=% reported_measurement=-2.8
compound=Cc1ccnc2c1NC(=O)c1cccnc1N2C1CC1 outcome_measure=inhibition scale_unit=% reported_measurement=-4.5
compound=Brc1c(NC2=NCCN2)ccc2nccnc12 outcome_measure=inhibition scale_unit=% reported_measurement=-2.9
compound=C[C@]12CC[C@@H](O)C[C@@H]1CC[C@@H]1[C@@H]2CC[C@]2(C)C(=O)CC[C@@H]12 outcome_measure=inhibition scale_unit=% reported_measurement=-2.4
compound=CN(C)CC/C=C1\c2ccccc2Sc2ccc(Cl)cc21 outcome_measure=inhibition scale_unit=% reported_measurement=2.3
compound="CC12CCC(C(=O)N(CCC#N)CCC#N)(CC1=O)C2(C)C (stereo not given)" outcome_measure=inhibition scale_unit=% reported_measurement=1.5
compound="CSCCC1NC2(C(=O)Nc3ccc(Cl)cc32)[C@@H]2C(=O)N(C3CCCC3)C(=O)[C@H]12 (stereo not given in full)" outcome_measure=inhibition scale_unit=% reported_measurement=-11.2
compound=COc1cc(C(=O)NCCc2c[nH]c3ccccc23)ccc1OCc1c(C)noc1C outcome_measure=inhibition scale_unit=% reported_measurement=0.2
compound=Cc1nc(C)c(C)nc1C outcome_measure=inhibition scale_unit=% reported_measurement=-9.1
compound="Cc1nc(NC(CC(C)C)C(=O)O)c2nc(C)oc2n1 (stereo not given)" outcome_measure=inhibition scale_unit=% reported_measurement=-5.4
compound=c1cnc2c(c1)ccc1ncccc12 outcome_measure=inhibition scale_unit=% reported_measurement=-2.4
compound=CN(C)CCC=C1c2ccccc2CCc2ccccc21 outcome_measure=inhibition scale_unit=% reported_measurement=0.7
compound=O=C1C(=O)c2ccccc2C(O)=C1c1ccccc1F outcome_measure=inhibition scale_unit=% reported_measurement=-1.5
compound=CC(=O)[C@@]1(O)CC[C@H]2[C@@H]3C[C@H](C)C4=CC(=O)C=C[C@]4(C)[C@@]3(F)[C@@H](O)C[C@@]21C outcome_measure=inhibition scale_unit=% reported_measurement=5.2
compound="CN1C(=O)C(O)(CC(=O)/C=C/C=C/c2ccccc2)c2ccccc21 (stereo not given)" outcome_measure=inhibition scale_unit=% reported_measurement=-0.3
compound=COc1cc(/C=C/C(=O)CC(=O)/C=C/c2ccc(O)c(OC)c2)ccc1O outcome_measure=inhibition scale_unit=% reported_measurement=-0.9
compound="COc1ccc2c(c1OC)C(=O)NC(C)=C(C(=O)OC(C)(C)C)C2O (stereo not given)" outcome_measure=inhibition scale_unit=% reported_measurement=-5.3
compound=Cc1cccc(Oc2coc3cc(OC(=O)c4cncc(Br)c4)ccc3c2=O)c1 outcome_measure=inhibition scale_unit=% reported_measurement=2
compound=COc1ccc(-c2nc3c(=O)n(C)c(=O)[nH]c3n2CCc2ccccc2)cc1 outcome_measure=inhibition scale_unit=% reported_measurement=-1.2
compound=C[C@H]1CCC[C@H](O)CCCCCc2cc(O)cc(O)c2C(=O)O1 outcome_measure=inhibition scale_unit=% reported_measurement=-4.3
compound="COc1ccc(C2NC(=O)c3ccccc3N2)cc1OC (stereo not given)" outcome_measure=inhibition scale_unit=% reported_measurement=-2.9
compound=CCOC(=O)C1=C2c3ccc4ccccc4c3CC(C)(C)N2C(=O)C1=O outcome_measure=inhibition scale_unit=% reported_measurement=-4.6
compound=CC(C)C(=O)Nc1ccc2c3c(cccc13)CC2 outcome_measure=inhibition scale_unit=% reported_measurement=-3
compound="CN(C)CCOC(=O)C(c1ccccc1)C1(O)CCCC1 (stereo not given)" outcome_measure=inhibition scale_unit=% reported_measurement=-6
compound="CC1CCC[C@H](O)CCCCCc2cc(O)cc(O)c2C(=O)O1 (stereo not given in full)" outcome_measure=inhibition scale_unit=% reported_measurement=-2.4
compound="COc1cc(OC)c(C2C(C#N)=C(N)OC3=C2C(=O)CC(C)(C)C3)cc1OC (stereo not given)" outcome_measure=inhibition scale_unit=% reported_measurement=4.6
compound="CC[C@]1(O)CC2CN(CCc3c([nH]c4ccccc34)[C@@](C(=O)OC)(c3cc4c(cc3OC)N(C=O)[C@H]3[C@@](O)(C(=O)OC)[C@H](OC(C)=O)[C@]5(CC)C=CCN6CC[C@]43[C@@H]65)C2)C1 (stereo not given in full)" outcome_measure=inhibition scale_unit=% reported_measurement=-12.5
compound="Cc1ccccc1OCC(O)CN1CCN(C)CC1 (stereo not given)" outcome_measure=inhibition scale_unit=% reported_measurement=-2.2
compound=C[C@]12CCC(=O)C=C1CC[C@@H]1[C@@H]2C(=O)C[C@]2(C)C(=O)CC[C@@H]12 outcome_measure=inhibition scale_unit=% reported_measurement=-4.7
compound="CC12CN3CC(C)(CN(C1)C3c1cccnc1)C2=O (stereo not given)" outcome_measure=inhibition scale_unit=% reported_measurement=9.9
compound="CC(C)CN1CCN(Cc2ccc3ncccc3c2)CC1CCO (stereo not given)" outcome_measure=inhibition scale_unit=% reported_measurement=0.5
compound=Cc1ccc2ncnc(NCCCCCC(=O)O)c2c1 outcome_measure=inhibition scale_unit=% reported_measurement=-4.7
compound=CC(=O)C1=C(NC(=O)c2ccc(C(F)(F)F)cc2)C[C@@H]2[C@H]1C2(C)C outcome_measure=inhibition scale_unit=% reported_measurement=-1
compound=CC(C)OC(=O)C(C)(C)Oc1ccc(C(=O)c2ccc(Cl)cc2)cc1 outcome_measure=inhibition scale_unit=% reported_measurement=-0.7
compound="CC1CCCc2sc3ncn(N)c(=N)c3c21 (stereo not given)" outcome_measure=inhibition scale_unit=% reported_measurement=-1.1
compound="COc1ccc(CCN(C)CCCC(C#N)(c2cc(OC)c(OC)c(OC)c2)C(C)C)cc1OC (stereo not given)" outcome_measure=inhibition scale_unit=% reported_measurement=6.4
